Origin of measurements: a melting point compilation (Tetko et al.)

metric: melting point

Use the examples below as a reference point.
- molecule: "OCc1nnc(Cc2ccccc2Br)[nH]1"
  melting point: "99 to 101 °C"
- molecule: "COc1ccccc1C(=O)NC(=O)CCl"
  melting point: "118 to 120 °C"
- molecule: "O=C(Nc1cccc(-c2nnnn2C2CC2)c1)OCC(F)(F)F"
  melting point: "124 to 126 °C"
- molecule: "CC(N)CCc1ccc(O)cc1 (stereo not drawn)"
  melting point: "111 to 113 °C"
- molecule: "N#CC(N)c1ccc(OCc2ccccc2)cc1 (stereo not drawn)"
  melting point: "111 to 113 °C"
- molecule: "CC(=O)Nc1ccsc1"
  melting point: "146 to 148 °C"

Input line: Suppose we examine the molecule Nc1ccc(-c2nncn2-c2ccccc2)cn1 ; what melting point value has been reported?
Output line: 219 to 221 °C

Input line: Suppose we examine the molecule CC(C)(C)OC(=O)N1C2CCC1CC(O)C2 (stereo not drawn) ; what melting point value has been reported?
Output line: 140 to 142 °C

Input line: Suppose we examine the molecule COc1cc(C=C2CCCc3c2nc2ccccc2c3C(=O)O)cc(OC)c1OC ; what melting point value has been reported?
Output line: 249 to 251 °C

Input line: Suppose we examine the molecule ClCc1csc(-c2ccc3c(c2)OCO3)n1 ; what melting point value has been reported?
Output line: 106 to 108 °C

Input line: Suppose we examine the molecule O=C(O)CCc1cccc([N+](=O)[O-])c1 ; what melting point value has been reported?
Output line: 111 to 113 °C

Input line: Suppose we examine the molecule Nc1ccc(Oc2cccc(Cl)c2)cc1 ; what melting point value has been reported?
Output line: 41 to 43 °C

Input line: Suppose we examine the molecule O=C(CCl)NC(=O)NC1CCCCC1 ; what melting point value has been reported?
Output line: 102 to 105 °C

Input line: Suppose we examine the molecule O=C(O)c1ccc(C2CC2)s1 ; what melting point value has been reported?
Output line: 111 to 113 °C

Input line: Suppose we examine the molecule CCNc1ccc(C(=O)O)cc1[N+](=O)[O-] ; what melting point value has been reported?
Output line: 239 to 241 °C

Input line: Suppose we examine the molecule Cc1cc(N)n(-c2ccc(OC(F)(F)F)cc2)n1 ; what melting point value has been reported?
Output line: 118 to 120 °C

Input line: Suppose we examine the molecule CC(C)n1c(C(=O)O)cc(Br)c1Br ; what melting point value has been reported?
Output line: 127 to 129 °C
